test: in vivo; conditions: mouse, in vivo, iv, 3 mg/kg
experimental.endpoint: Kp

compound	reported.result
COc1ccc2c3c1O[C@H]1C[C@@H](O)C=C[C@@]31CCN(C)C2 [Gal, galantamine]	1.2

###

assay: in vivo; settings: mouse, in vivo

smiles.record	Kp
COc1ccc2c3c1O[C@H]1C[C@@H](O)C=C[C@@]31CCN(C)C2	~1.3

Source listed as patent EP2137192B1.
